Molecular target: Recombinant human HDAC1 (Homo sapiens, UniProt Q13547)
Construct: purchased BPS Biosciences
Sequence (Q13547 whole entry): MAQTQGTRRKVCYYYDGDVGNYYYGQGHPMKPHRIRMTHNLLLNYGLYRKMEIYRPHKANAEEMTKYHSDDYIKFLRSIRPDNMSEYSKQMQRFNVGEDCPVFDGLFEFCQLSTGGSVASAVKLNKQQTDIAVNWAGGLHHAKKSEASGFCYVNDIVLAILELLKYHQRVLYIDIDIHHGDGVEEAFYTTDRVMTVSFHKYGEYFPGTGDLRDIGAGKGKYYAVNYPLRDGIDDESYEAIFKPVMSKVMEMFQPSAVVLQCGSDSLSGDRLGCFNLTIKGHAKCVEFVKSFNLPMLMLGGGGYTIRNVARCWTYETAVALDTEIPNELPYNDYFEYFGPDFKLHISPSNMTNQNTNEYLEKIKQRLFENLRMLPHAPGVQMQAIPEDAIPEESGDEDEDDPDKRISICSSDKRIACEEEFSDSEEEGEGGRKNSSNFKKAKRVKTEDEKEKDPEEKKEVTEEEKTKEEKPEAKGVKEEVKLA
Assay: HDAC inhibitory assay, HDAC1 (Boc-Lys(Ac)-AMC substrate)
Assay type: biochemical
Details: test concentration not given; average of triplicate
Where a name gives a salt, the structure may show the parent alone.
Record form. Attribute: HDAC 1 inhibitory activity. Fill in for each entry.
One number for each entry, in %.

Field: example entries. Status: answers known.
{"compound": "O=C(NCCc1c[nH]c2ccccc12)c1coc(-c2ccccc2O)n1 [Example 8]", "HDAC 1 inhibitory activity [%]": 41.7}
{"compound": "O=C(NC(c1ccccc1)c1ccccc1)c1coc(-c2ccccc2O)n1 [Example 2]", "HDAC 1 inhibitory activity [%]": 68.0}
{"compound": "O=C(NCc1cccc2ccccc12)c1coc(-c2ccccc2O)n1 [Example 7]", "HDAC 1 inhibitory activity [%]": 47.8}
{"compound": "O=C(NCCCCNCCC(c1ccccc1)c1ccccc1)c1coc(-c2ccccc2O)n1 [Example 12, hydrochloride]", "HDAC 1 inhibitory activity [%]": 32.2}

Attention now shifts to the item below.
// query Provide only the value of recorded HDAC 1 inhibitory activity for O=C(Nc1ccccc1)c1ccc(CNC(=O)c2coc(-c3ccccc3O)n2)cc1 [Example 15]
// result 47

====

Biological target: Recombinant human HDAC4 (Homo sapiens, UniProt P56524)
Construct: purchased Millipore
Sequence (P56524 whole entry): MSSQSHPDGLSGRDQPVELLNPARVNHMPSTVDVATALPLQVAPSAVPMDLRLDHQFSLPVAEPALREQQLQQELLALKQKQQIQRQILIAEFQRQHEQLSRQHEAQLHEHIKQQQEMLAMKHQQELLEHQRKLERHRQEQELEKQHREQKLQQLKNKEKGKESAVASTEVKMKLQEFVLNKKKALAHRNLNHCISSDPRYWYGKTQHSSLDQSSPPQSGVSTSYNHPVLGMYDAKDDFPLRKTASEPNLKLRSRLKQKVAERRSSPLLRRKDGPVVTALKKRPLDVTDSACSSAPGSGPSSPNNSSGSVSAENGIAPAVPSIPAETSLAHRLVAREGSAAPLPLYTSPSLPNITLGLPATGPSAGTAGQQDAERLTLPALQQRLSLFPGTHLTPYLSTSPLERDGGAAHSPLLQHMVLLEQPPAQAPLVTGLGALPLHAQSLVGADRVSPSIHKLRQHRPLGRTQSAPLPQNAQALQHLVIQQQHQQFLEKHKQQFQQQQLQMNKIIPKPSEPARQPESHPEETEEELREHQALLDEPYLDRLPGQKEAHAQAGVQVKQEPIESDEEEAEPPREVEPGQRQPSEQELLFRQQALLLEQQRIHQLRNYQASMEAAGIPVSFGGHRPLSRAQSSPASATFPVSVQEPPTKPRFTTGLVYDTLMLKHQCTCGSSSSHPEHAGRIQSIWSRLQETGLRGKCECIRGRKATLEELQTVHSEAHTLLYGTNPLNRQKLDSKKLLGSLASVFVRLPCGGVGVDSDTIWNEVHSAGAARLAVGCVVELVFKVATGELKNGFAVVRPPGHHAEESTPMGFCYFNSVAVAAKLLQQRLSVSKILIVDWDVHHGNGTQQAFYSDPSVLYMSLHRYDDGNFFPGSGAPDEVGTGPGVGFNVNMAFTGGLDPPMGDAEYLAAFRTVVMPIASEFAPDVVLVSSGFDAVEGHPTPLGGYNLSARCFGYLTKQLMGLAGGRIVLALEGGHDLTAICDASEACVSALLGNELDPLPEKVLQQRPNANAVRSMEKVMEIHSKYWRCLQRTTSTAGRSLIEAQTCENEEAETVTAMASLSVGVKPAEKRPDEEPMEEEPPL
Test: HDAC inhibitory assay, HDAC4 (Boc-Lys(Tfa)-AMC substrate)
Assay type: biochemical
Details: test concentration not given; average of triplicate
measured_metric: HDAC 4 inhibitory activity

{"input_smiles": "O=C(NCC(c1ccccc1)c1ccccc1)c1coc(-c2ccccc2O)n1", "HDAC 4 inhibitory activity": "8.5%"}

State recorded HDAC 4 inhibitory activity for all listed molecules.
1. O=C(Nc1ccccc1)c1coc(-c2ccccc2O)n1
2. O=C(NCCc1c[nH]c2ccccc12)c1coc(-c2ccccc2O)n1
3. O=C(NCCCCNC(=O)C(c1ccccc1)c1ccccc1)c1coc(-c2ccccc2O)n1
4. O=C(NC(c1ccccc1)c1ccccc1)c1coc(-c2ccccc2O)n1
5. O=C(NCCC(c1ccccc1)c1ccccc1)c1coc(-c2ccccc2O)n1
6. O=C(NCCCCN1C(=O)c2ccccc2C1=O)c1coc(-c2ccccc2O)n1
7. O=C(NCc1cccc2ccccc12)c1coc(-c2ccccc2O)n1
8. O=C(NCc1ccc(-c2ccccc2)cc1)c1coc(-c2ccccc2O)n1

// result
17.1%
7.5%
4.8%
20.7%
25.8%
17.5%
21.3%
24.4%

====

Kindly supply the reported HDAC 11 inhibitory activity values for the records listed here.
Molecular target: Recombinant human HDAC11 (Homo sapiens)
Construct: purchased BPS Biosciences
Sequence (Q96DB2 1-347): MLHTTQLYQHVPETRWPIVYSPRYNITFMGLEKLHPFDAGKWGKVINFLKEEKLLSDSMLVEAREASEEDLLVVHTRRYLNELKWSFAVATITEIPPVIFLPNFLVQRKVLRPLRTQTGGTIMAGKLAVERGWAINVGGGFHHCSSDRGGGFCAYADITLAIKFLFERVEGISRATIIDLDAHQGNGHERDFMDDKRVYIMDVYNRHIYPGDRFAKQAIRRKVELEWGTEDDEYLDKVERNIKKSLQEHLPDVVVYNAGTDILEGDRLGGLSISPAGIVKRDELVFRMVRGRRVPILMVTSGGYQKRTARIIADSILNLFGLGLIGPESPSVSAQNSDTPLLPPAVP
Assay: HDAC inhibitory assay, HDAC11 (Boc-Lys(Tfa)-AMC substrate)
Type: biochemical
Settings: test concentration not given; average of triplicate
Where a name gives a salt, the structure may show the parent alone.
One number for each entry, in %.

{"compound": "O=C(NCc1cccc2ccccc12)c1coc(-c2ccccc2O)n1", "measured_metric": "HDAC 11 inhibitory activity", "meas_value": 49.9}
{"compound": "O=C(NCCC(c1ccccc1)c1ccccc1)c1coc(-c2ccccc2O)n1", "measured_metric": "HDAC 11 inhibitory activity", "meas_value": 45.2}
{"compound": "O=C(NCCc1c[nH]c2ccccc12)c1coc(-c2ccccc2O)n1", "measured_metric": "HDAC 11 inhibitory activity", "meas_value": 26.0}
{"compound": "O=C(NC(c1ccccc1)c1ccccc1)c1coc(-c2ccccc2O)n1", "measured_metric": "HDAC 11 inhibitory activity", "meas_value": 23.1}

Please find the next compound below.
// query Consider the compound O=C(NCCCCNCCC(c1ccccc1)c1ccccc1)c1coc(-c2ccccc2O)n1 [Example 12, hydrochloride] . State its measured HDAC 11 inhibitory activity.
// result 39.1
